All values here come from patent US20100311714A1.

For each of the compounds below, state its HT-perm/logPe pH6.8.
experiment: Parallel Artificial Membrane Permeability Assay (PAMPA) at pH 6.8; format: physicochemical
Answer with a bare number; do not write a unit.

Report HT-perm/logPe pH6.8 for CNc1ncc(-c2ccc3ncc4c(c3c2)n(-c2cccnc2C)c(=O)n4C)cn1 please.
−4.7

Report HT-perm/logPe pH6.8 for Cc1cccnc1-n1c(=O)n(C)c2cnc3ccc(-c4cnc5ccccc5c4)cc3c21 please.
−3.9

Report HT-perm/logPe pH6.8 for CCOc1ncc(-c2ccc3ncc4c(c3c2)n(-c2ncccc2C)c(=O)n4C)cn1 please.
−3.8

Report HT-perm/logPe pH6.8 for CNc1ncc(-c2ccc3ncc4c(c3c2)n(-c2ncccc2C)c(=O)n4C)cn1 please.
−4.7

---

Biological target: mTOR (Homo sapiens)
Construct: purchased Invitrogen Corporation (Carlsbad/Calif., USA) PV4753
Sequence (P42345 1360-2549 limits assumed): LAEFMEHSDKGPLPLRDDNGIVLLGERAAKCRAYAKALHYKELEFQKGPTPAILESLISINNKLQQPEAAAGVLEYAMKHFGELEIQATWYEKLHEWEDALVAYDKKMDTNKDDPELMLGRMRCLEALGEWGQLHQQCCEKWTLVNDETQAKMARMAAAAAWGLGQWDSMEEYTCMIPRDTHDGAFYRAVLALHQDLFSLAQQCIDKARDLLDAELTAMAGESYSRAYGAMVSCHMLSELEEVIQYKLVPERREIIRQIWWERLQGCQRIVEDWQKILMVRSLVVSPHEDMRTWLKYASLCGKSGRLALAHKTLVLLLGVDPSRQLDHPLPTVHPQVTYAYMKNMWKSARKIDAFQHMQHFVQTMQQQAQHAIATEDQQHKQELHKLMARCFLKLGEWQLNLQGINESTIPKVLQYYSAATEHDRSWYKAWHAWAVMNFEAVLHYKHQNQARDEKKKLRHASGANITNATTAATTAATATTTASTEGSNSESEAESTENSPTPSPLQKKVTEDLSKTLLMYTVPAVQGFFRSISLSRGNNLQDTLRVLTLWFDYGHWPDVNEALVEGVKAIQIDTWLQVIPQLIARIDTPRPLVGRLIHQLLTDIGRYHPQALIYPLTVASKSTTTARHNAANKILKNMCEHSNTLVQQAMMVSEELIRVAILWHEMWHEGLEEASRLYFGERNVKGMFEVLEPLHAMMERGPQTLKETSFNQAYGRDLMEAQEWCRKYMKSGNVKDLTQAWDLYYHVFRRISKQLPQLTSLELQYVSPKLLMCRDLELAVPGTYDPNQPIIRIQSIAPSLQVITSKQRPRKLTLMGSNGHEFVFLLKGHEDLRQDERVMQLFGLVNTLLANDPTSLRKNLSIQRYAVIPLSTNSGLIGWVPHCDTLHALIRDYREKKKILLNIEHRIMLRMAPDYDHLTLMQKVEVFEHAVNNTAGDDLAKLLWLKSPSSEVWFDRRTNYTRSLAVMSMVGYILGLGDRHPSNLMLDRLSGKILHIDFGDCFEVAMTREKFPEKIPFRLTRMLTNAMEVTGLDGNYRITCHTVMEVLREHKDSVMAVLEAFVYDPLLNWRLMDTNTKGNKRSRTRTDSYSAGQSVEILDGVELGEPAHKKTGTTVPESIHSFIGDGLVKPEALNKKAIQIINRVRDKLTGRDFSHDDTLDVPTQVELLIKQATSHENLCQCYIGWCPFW
Experiment: Biochemical assay for m-TOR by TR-FRET
Details: read-out: EPK_mTOR/IC50
Excerpt: Biochemical Assay for m-TOR by TR-FRET. Assay components are purchased from Invitrogen Corporation (Carlsbad/Calif., USA): GFP-4EBP1 (Cat. No. PV4759), Tb3+-α-p4EBP1 [pThr46] Antibody (Cat. No. PV4757), proprietary TR-FRET dilution buffer (Cat. No. PV3574), mTOR protein (Cat. No. PV4753). […]
For each of the compounds below, state its pIC50.
In textbook form, pIC50 equals minus log to base ten of the concentration in mol/L.

Report pIC50 for COCCOc1ccc(-n2c(=O)n(C)c3cnc4ccc(-c5cnc(COC)c(OC)c5)cc4c32)c(C)n1 please.
6.85

Report pIC50 for CCNc1cc(-c2ccc3ncc4c(c3c2)n(-c2ccc(N3CC(F)(F)C(F)(F)C3)nc2C)c(=O)n4C)cnc1CO please.
7.35

Report pIC50 for Cc1nc(N2CCC(O)C2)ccc1-n1c(=O)n(C)c2cnc3ccc(-c4cnc(N)c(C(F)(F)F)c4)cc3c21 (stereo not shown) please.
8.15

Report pIC50 for COc1nc(N2CCNCC2)ccc1-n1c(=O)n(C)c2cnc3ccc(-c4cnc(N(C)C)nc4)cc3c21 please.
8.05

---

biological target: PI3K alfa (Homo sapiens); construct: His tag (C); made in house; host or cells: baculovirus BV1075; Tn5 (Trichoplusia ni) or TiniPro insect cells; assay: PI3K alpha kinase assay (Kinase-Glo luminescence); format: biochemical; conditions: read-out: EPK_PI3Kalfa/IC50
Sequence (P42336 with tags, fused parts or gaps limits assumed): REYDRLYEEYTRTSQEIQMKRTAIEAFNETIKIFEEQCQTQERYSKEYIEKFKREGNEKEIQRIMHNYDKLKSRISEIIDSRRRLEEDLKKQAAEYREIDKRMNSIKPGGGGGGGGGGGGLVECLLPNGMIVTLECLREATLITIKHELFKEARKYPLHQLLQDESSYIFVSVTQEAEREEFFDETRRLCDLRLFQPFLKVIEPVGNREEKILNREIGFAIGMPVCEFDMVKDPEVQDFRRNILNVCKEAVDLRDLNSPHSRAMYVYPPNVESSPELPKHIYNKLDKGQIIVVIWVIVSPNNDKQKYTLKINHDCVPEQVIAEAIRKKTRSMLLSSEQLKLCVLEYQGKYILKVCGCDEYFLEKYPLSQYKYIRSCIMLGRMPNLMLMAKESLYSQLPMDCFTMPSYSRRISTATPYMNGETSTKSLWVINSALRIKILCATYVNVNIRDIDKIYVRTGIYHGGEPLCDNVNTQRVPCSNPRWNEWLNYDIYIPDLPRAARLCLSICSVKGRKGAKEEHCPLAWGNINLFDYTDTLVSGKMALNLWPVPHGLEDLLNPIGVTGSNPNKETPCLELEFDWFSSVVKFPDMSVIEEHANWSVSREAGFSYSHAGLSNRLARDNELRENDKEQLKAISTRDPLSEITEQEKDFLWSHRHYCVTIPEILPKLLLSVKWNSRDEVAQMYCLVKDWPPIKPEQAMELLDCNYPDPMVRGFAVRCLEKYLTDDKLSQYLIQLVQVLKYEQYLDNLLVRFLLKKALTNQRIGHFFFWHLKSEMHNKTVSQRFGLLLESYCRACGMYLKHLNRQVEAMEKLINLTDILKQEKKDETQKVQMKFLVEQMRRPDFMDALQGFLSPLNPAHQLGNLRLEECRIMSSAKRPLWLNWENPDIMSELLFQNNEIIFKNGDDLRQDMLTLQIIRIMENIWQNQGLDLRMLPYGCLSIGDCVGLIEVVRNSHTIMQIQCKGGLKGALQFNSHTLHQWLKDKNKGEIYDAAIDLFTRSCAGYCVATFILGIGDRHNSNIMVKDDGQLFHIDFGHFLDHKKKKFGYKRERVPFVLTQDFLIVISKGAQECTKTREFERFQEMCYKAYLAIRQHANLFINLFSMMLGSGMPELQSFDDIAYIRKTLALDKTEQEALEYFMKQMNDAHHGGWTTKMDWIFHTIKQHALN
experimental-readout: IC50 (nM)
Give the quantity in nM, number only.

Report IC50 for CNc1ncc(-c2ccc3ncc4c(c3c2)n(-c2ccc(N(C)C)nc2C)c(=O)n4C)cn1 [Example 19.1] please.
11

Report IC50 for CCOc1ccc(-c2ccc3ncc4c(c3c2)n(-c2ccc(C)nc2C)c(=O)n4C)cn1 [Example 14.2] please.
43

Report IC50 for CCOc1ccc(-c2ccc3ncc4c(c3c2)n(-c2ccc(NC(=O)COC)nc2C)c(=O)n4C)cn1 [Example 20.2] please.
162

Report IC50 for Cc1ncccc1-n1c(=O)n(C)c2cnc3ccc(-c4cncc(NC(C)C)c4)cc3c21 [Example 2.24] please.
28

Report IC50 for CNc1ncc(-c2ccc3ncc4c(c3c2)n(-c2ccc(F)nc2C)c(=O)n4C)cc1C(F)(F)F [Example 7.13] please.
11

Report IC50 for CNc1ncc(-c2ccc3ncc4c(c3c2)n(-c2ccc(C)nc2C)c(=O)n4C)cn1 [Example 14.4] please.
30

Report IC50 for CCOc1cc(-c2ccc3ncc4c(c3c2)n(-c2ccc(F)nc2C)c(=O)n4C)cnc1COC [Example 7.5] please.
94

Report IC50 for COC1CCN(c2ccc(-n3c(=O)n(C)c4cnc5ccc(-c6cncc(C(C)(C)O)c6)cc5c43)c(C)n2)C1 (centres unmarked) [Example 28.1] please.
18
